conditions: time 4 h; Pc 4 in toluene ~9 μM, alkene 1:1000 mole ratio, white light 1.2 kJ/s/m^2
parameterMeasured: decomp (%) of Pc 4

Recorded decomp (%) of Pc 4, per entry:
[
  {
    "molecule": "CCCCC/C=C\\C/C=C\\CCCCCCCC(=O)O",
    "decomp (%) of Pc 4": 72
  },
  {
    "molecule": "CC(C)=CCC/C(C)=C/CO",
    "decomp (%) of Pc 4": 98
  },
  {
    "molecule": "CC(C)=CCC/C(C)=C/CC/C(C)=C/CC/C=C(\\C)CC/C=C(\\C)CCC=C(C)C",
    "decomp (%) of Pc 4": 81
  }
]

A. CC(C)=CCC/C(C)=C/CC/C(C)=C/CO
B. C1=C\CC/C=C\CC/1
Hi, I'm comparing two records. Which one has the lower decomp (%) of Pc 4, A or B ? Refer to your chosen item by its label in the answer.
B

* * *

assay: Photodecomposition of Al and Si phthalocyanines in toluene in the presence of squalene under white light; format: physicochemical; details: time 4 h, radiation 172 kJ/mol × 10^−6; toluene ~9 μM, squalene 1:1000 mole ratio, white light 1.2 kJ/s/m^2, air
parameterMeasured: decomp (%)

[
  {
    "compound": "CCCCCC[Si](CCCCCC)(CCCCCC)O[Si]1(O)n2c3c4ccccc4c2N=C2N=C(N=c4c5ccccc5c(n41)=NC1=NC(=N3)c3ccccc31)c1ccccc12 (stereo not drawn)",
    "parameterMeasured": "decomp (%)",
    "dataValue": 26
  },
  {
    "compound": "C[Si](C)(C)O[Si]1(O[Si](C)(C)C)n2c3c4ccccc4c2N=C2N=C(N=c4c5ccccc5c(n41)=NC1=NC(=N3)c3ccccc31)c1ccccc12",
    "parameterMeasured": "decomp (%)",
    "dataValue": 19
  },
  {
    "compound": "CCCCCC[Si](CCCCCC)(CCCCCC)[O][Al]1[n]2c3c4ccccc4c2N=c2c4ccccc4c([n]21)=NC1=NC(=NC2=NC(=N3)c3ccccc32)c2ccccc21",
    "parameterMeasured": "decomp (%)",
    "dataValue": 17
  },
  {
    "compound": "CCCCCCCC[Si](CCCCCCCC)(CCCCCCCC)O[Si]1(O[Si](CCCCCCCC)(CCCCCCCC)CCCCCCCC)n2c3c4ccccc4c2N=C2N=C(N=c4c5ccccc5c(n41)=NC1=NC(=N3)c3ccccc31)c1ccccc12",
    "parameterMeasured": "decomp (%)",
    "dataValue": 15
  }
]

a. CCCCCC[Si](CCCCCC)(CCCCCC)O[Si]1(O[Si](CCCCCC)(CCCCCC)CCCCCC)n2c3c4ccccc4c2N=C2N=C(N=c4c5ccccc5c(n41)=NC1=NC(=N3)c3ccccc31)c1ccccc12
b. C[Si](C)(CCCI)O[Si]1(O)n2c3c4ccccc4c2N=C2N=C(N=c4c5ccccc5c(n41)=NC1=NC(=N3)c3ccccc31)c1ccccc12 (stereo not drawn) [Pc 58, SiPc[OSiMe2(CH2)3I](OH)]
// pick larger decomp (%) from pair: a vs b Label of pick, please.
b
(b: 23%, a: 14%)

* * *

experiment: Photodecomposition of Al and Si phthalocyanines in toluene in the presence of squalene under white light; format: physicochemical; conditions: time 4 h, radiation 172 kJ/mol × 10^−6; toluene ~9 μM, squalene 1:1000 mole ratio, white light 1.2 kJ/s/m^2, air
parameterMeasured: decomp (%)

[
  {
    "compound": "CN(C)CCC[Si](C)(C)O[Si]1(O)n2c3c4ccccc4c2N=C2N=C(N=c4c5ccccc5c(n41)=NC1=NC(=N3)c3ccccc31)c1ccccc12 (centres unmarked)",
    "dataValue": 81
  },
  {
    "compound": "CCC[Si](CCC)(CCC)[O][Al]1[n]2c3c4ccccc4c2N=C2N=C(N=c4c5ccccc5c([n]41)=NC1=NC(=N3)c3ccccc31)c1ccccc12",
    "dataValue": 16
  },
  {
    "compound": "CC[Si](CC)(CC)O[Si]1(O[Si](CC)(CC)CC)n2c3c4ccccc4c2N=C2N=C(N=c4c5ccccc5c(n41)=NC1=NC(=N3)c3ccccc31)c1ccccc12",
    "dataValue": 9
  }
]

I. CCC[Si](CCC)(CCC)O[Si]1(O[Si](CCC)(CCC)CCC)n2c3c4ccccc4c2N=C2N=C(N=c4c5ccccc5c(n41)=NC1=NC(=N3)c3ccccc31)c1ccccc12
II. C[SiH2]O[Si]1(O[SiH2]C)n2c3c4ccccc4c2N=C2N=C(N=c4c5ccccc5c(n41)=NC1=NC(=N3)c3ccccc31)c1ccccc12 (centres unmarked)
For the pair I and II , which entry has the numerically smaller recorded decomp (%)? // output: label of the selected item
I

* * *

Test: Photodecomposition of Al and Si phthalocyanines in toluene in the presence of squalene under white light
Format: physicochemical
Conditions: time 6 h, radiation 258 kJ/mol × 10^−6; toluene ~9 μM, squalene 1:1000 mole ratio, white light 1.2 kJ/s/m^2, air
Protocol: The beam intensity was checked before each measurement. Solutions for the photodecomposition experiments were prepared as follows.
parameterMeasured: decomp (%)

[
  {
    "molecule": "CCCCCC[Si](CCCCCC)(CCCCCC)O[Si]1(O)n2c3c4ccccc4c2N=C2N=C(N=c4c5ccccc5c(n41)=NC1=NC(=N3)c3ccccc31)c1ccccc12 (centres unmarked)",
    "decomp (%)": 34
  },
  {
    "molecule": "CCCCCC[Si](CCCCCC)(CCCCCC)O[Si]1(O[Si](CCCCCC)(CCCCCC)CCCCCC)n2c3c4ccccc4c2N=C2N=C(N=c4c5ccccc5c(n41)=NC1=NC(=N3)c3ccccc31)c1ccccc12",
    "decomp (%)": 20
  },
  {
    "molecule": "CCC[Si](CCC)(CCC)[O][Al]1[n]2c3c4ccccc4c2N=C2N=C(N=c4c5ccccc5c([n]41)=NC1=NC(=N3)c3ccccc31)c1ccccc12",
    "decomp (%)": 23
  }
]

A. C[Si](C)(CCCI)O[Si]1(O)n2c3c4ccccc4c2N=C2N=C(N=c4c5ccccc5c(n41)=NC1=NC(=N3)c3ccccc31)c1ccccc12 (centres unmarked) [Pc 58, SiPc[OSiMe2(CH2)3I](OH)]
B. C[SiH2]O[Si]1(O[SiH2]C)n2c3c4ccccc4c2N=C2N=C(N=c4c5ccccc5c(n41)=NC1=NC(=N3)c3ccccc31)c1ccccc12 (centres unmarked)
Please indicate which entry, A or B , has the lower recorded decomp (%) value. Lab note: record the label of whichever item you select.
A
(A: 34%, B: 63%)

* * *

assay: Photodecomposition of Al and Si phthalocyanines in toluene in the presence of squalene under white light; type: physicochemical; conditions: time 2 h, radiation 86 kJ/mol × 10^−6; toluene ~9 μM, squalene 1:1000 mole ratio, white light 1.2 kJ/s/m^2, air
parameterMeasured: decomp (%)

[
  {
    "compound": "CN(C)CCC[Si](C)(C)O[Si]1(O)n2c3c4ccccc4c2N=C2N=C(N=c4c5ccccc5c(n41)=NC1=NC(=N3)c3ccccc31)c1ccccc12 (stereo not drawn)",
    "decomp (%)": 57
  }
]

A. CCCCCC[Si](CCCCCC)(CCCCCC)O[Si]1(O)n2c3c4ccccc4c2N=C2N=C(N=c4c5ccccc5c(n41)=NC1=NC(=N3)c3ccccc31)c1ccccc12 (stereo not drawn)
B. CCC[Si](CCC)(CCC)O[Si]1(O[Si](CCC)(CCC)CCC)n2c3c4ccccc4c2N=C2N=C(N=c4c5ccccc5c(n41)=NC1=NC(=N3)c3ccccc31)c1ccccc12
Which value of decomp (%) is greater, the one for A or the one for B ? Field: selected label. Fill in the label of the entry you choose.
A
(A: 16%, B: 3%)

* * *

settings: time 2 h; Pc 4 in toluene ~9 μM, alkene 1:1000 mole ratio, white light 1.2 kJ/s/m^2
parameterMeasured: decomp (%) of Pc 4

// worked examples, decomp (%) of Pc 4 included
[
  {
    "molecule": "CC(C)=CCC/C(C)=C/CC/C(C)=C/CO",
    "unitOfMeasurement": "%",
    "decomp (%) of Pc 4": 79
  },
  {
    "molecule": "CCCCC/C=C\\C/C=C\\CCCCCCCC(=O)O",
    "unitOfMeasurement": "%",
    "decomp (%) of Pc 4": 40
  }
]

P. C1=C\CC/C=C\CC/1
Q. CC(C)=CCC/C(C)=C/CC/C(C)=C/CC/C=C(\C)CC/C=C(\C)CCC=C(C)C
R. CC(C)=CCC/C(C)=C/CO
Write the entries in order, lowest recorded decomp (%) of Pc 4 first. Returns: the labels arranged in the requested order.
P, Q, R
(P: 23%, Q: 57%, R: 87%)

* * *

settings: time 6 h; Pc 4 in toluene ~9 μM, alkene 1:1000 mole ratio, white light 1.2 kJ/s/m^2
parameterMeasured: decomp (%) of Pc 4

[
  {
    "compound": "CC(C)=CCC/C(C)=C/CO [geraniol]",
    "unitOfMeasurement": "%",
    "decomp (%) of Pc 4": 99
  },
  {
    "compound": "C1=C\\CC/C=C\\CC/1 [1,5-cyclooctadiene]",
    "unitOfMeasurement": "%",
    "decomp (%) of Pc 4": 69
  },
  {
    "compound": "CC(C)=CCC/C(C)=C/CC/C(C)=C/CO [farnesol]",
    "unitOfMeasurement": "%",
    "decomp (%) of Pc 4": 99
  },
  {
    "compound": "CC(C)=CCC/C(C)=C/CC/C(C)=C/CC/C=C(\\C)CC/C=C(\\C)CCC=C(C)C [squalene]",
    "unitOfMeasurement": "%",
    "decomp (%) of Pc 4": 92
  },
  {
    "compound": "CCCCC/C=C\\C/C=C\\CCCCCCCC(=O)O [linoleic acid]",
    "unitOfMeasurement": "%",
    "decomp (%) of Pc 4": 89
  }
]
